I'd be grateful if you could share measured MCH for these entries.
# Species: Rattus norvegicus
# assay notes: Open TG-GATES - Regimen: Daily Repeat
# Type: toxicity, organism-based, Sprague-Dawley
# Parameters: regimen Daily Repeat, gender Male, age 6 weeks
# setup conditions: in vivo, po, 0 mg/kg, 72 h, tissue Blood, route gavage, dose level Control, time 3 day
Give bare numbers, in pg.

Some molecules with known MCH results, for comparison:
molecule | readout kind | uom | observed
Cc1cccc(Nc2ccccc2C(=O)O)c1C | MCH | pg | 21.9
CN(C)[C@@H]1C(O)=C(C(N)=O)C(=O)[C@@]2(O)C(O)=C3C(=O)c4c(O)cccc4[C@@](C)(O)[C@H]3C[C@@H]12 | MCH | pg | 21.9
Clc1c(Cl)c(Cl)c(Cl)c(Cl)c1Cl | MCH | pg | 22
CC(CN1c2ccccc2Sc2ccccc21)N(C)C (configuration not stated) | MCH | pg | 20.4
CC(=O)Nc1nnc(S(N)(=O)=O)s1 [ACETAZOLAMIDE] | MCH | pg | 21.3

Your task in this section: give MCH for each listed record.
1. CCOC(=O)[C@H](CCc1ccccc1)N[C@@H](C)C(=O)N1CCC[C@H]1C(=O)O
2. CN1C(C(=O)Nc2ccccn2)=C(O)c2sc(Cl)cc2S1(=O)=O

1: 21; 2: 21

###

# Species on record: Rattus norvegicus
# assay notes: Open TG-GATES - Regimen: Daily Repeat
# Type: toxicity, organism-based, Sprague-Dawley
# Design: regimen Daily Repeat, gender Male, age 6 weeks
# setup conditions: in vivo, po, 0 mg/kg, […], tissue Plasma, route gavage, dose level Control, time 14 day
readout kind: DBIL (mg/dL)
Give bare numbers, in mg/dL.

Please review the entries below; each comes with its answer.
compound | DBIL (mg/dL)
CCOC(=O)[C@H](CCc1ccccc1)N[C@@H](C)C(=O)N1CCC[C@H]1C(=O)O | 0
O=C(O)Cc1ccccc1Nc1c(Cl)cccc1Cl | 0.1
Clc1c(Cl)c(Cl)c(Cl)c(Cl)c1Cl | 0.004
CN1C(C(=O)Nc2ccccn2)=C(O)c2sc(Cl)cc2S1(=O)=O | 0.096

# batch: return DBIL for each of the 4 compounds below
1. C#C[C@]1(O)CC[C@H]2[C@@H]3CCC4=Cc5oncc5C[C@]4(C)[C@H]3CC[C@@]21C
2. CC(=O)Nc1nnc(S(N)(=O)=O)s1 [ACETAZOLAMIDE]
3. CN(C)[C@@H]1C(O)=C(C(N)=O)C(=O)[C@@]2(O)C(O)=C3C(=O)c4c(O)cccc4[C@@](C)(O)[C@H]3C[C@@H]12
4. Cc1cccc(Nc2ccccc2C(=O)O)c1C

1. 0
2. 0
3. 0.01
4. 0.092

Dear colleague, could you send me DBIL for each of the items below? Thanks.
1. CC(CN1c2ccccc2Sc2ccccc21)N(C)C (stereo not given)
2. C1CCC(C(CC2CCCCN2)C2CCCCC2)CC1 (stereo not given)

1: 0; 2: 0

###

# Organism: Rattus norvegicus
# assay notes: Open TG-GATES - Regimen: Single
# Type: toxicity, organism-based, Sprague-Dawley
# Design: regimen Single, gender Male, age 6 weeks
# setup conditions: in vivo, po, 0 mg/kg, 3 h, tissue Blood, route gavage, dose level Control
readout kind: MCHC (%)
One number for each entry, in %.

Dear colleague, could you send me MCHC for each of the items below? Thanks.
1. Clc1c(Cl)c(Cl)c(Cl)c(Cl)c1Cl
2. C1CCC(C(CC2CCCCN2)C2CCCCC2)CC1 (stereo not given)
3. COc1cc([C@@H]2c3cc4c(cc3[C@@H](O[C@@H]3O[C@@H]5CO[C@@H](C)O[C@H]5[C@H](O)[C@H]3O)[C@H]3COC(=O)[C@H]23)OCO4)cc(OC)c1O [ETOPOSIDE]
4. CC(CN1c2ccccc2Sc2ccccc21)N(C)C (stereo not given)
5. CN1C(C(=O)Nc2ccccn2)=C(O)c2sc(Cl)cc2S1(=O)=O
6. CC(=O)Nc1nnc(S(N)(=O)=O)s1 [ACETAZOLAMIDE]
7. CN(C)[C@@H]1C(O)=C(C(N)=O)C(=O)[C@@]2(O)C(O)=C3C(=O)c4c(O)cccc4[C@@](C)(O)[C@H]3C[C@@H]12
8. CCOC(=O)[C@H](CCc1ccccc1)N[C@@H](C)C(=O)N1CCC[C@H]1C(=O)O

1: 34.9; 2: 34; 3: 33.8; 4: 32.6; 5: 33.8; 6: 32.9; 7: 33.1; 8: 33

I have 2 compounds here; please give me MCHC for each one.
1. C#C[C@]1(O)CC[C@H]2[C@@H]3CCC4=Cc5oncc5C[C@]4(C)[C@H]3CC[C@@]21C
2. Cc1cccc(Nc2ccccc2C(=O)O)c1C

1. 33.1
2. 35.5

###

I'd appreciate it if you could supply LDH values for the items below.
# Species: Rattus norvegicus
# assay notes: Open TG-GATES - Regimen: Single
# Format: toxicity, organism-based, Sprague-Dawley
# Design: regimen Single, gender Male, age 6 weeks
# setup conditions: in vivo, po, 0 mg/kg, 24 h, tissue Plasma, route gavage, dose level Control
Numbers only, in IU/L.

Recorded results for 2 molecules are shown here.
molecule | LDH [IU/L]
CC(=O)Nc1nnc(S(N)(=O)=O)s1 [ACETAZOLAMIDE] | 185.8
CCOC(=O)[C@H](CCc1ccccc1)N[C@@H](C)C(=O)N1CCC[C@H]1C(=O)O | 86.4

Query: LDH; subject: O=[N+]([O-])c1ccc2c(c1)Cc1ccccc1-2
153.2

###

# Organism: Rattus norvegicus
# assay notes: Open TG-GATES - Regimen: Single
# Type: toxicity, organism-based, Sprague-Dawley
# Set-up: regimen Single, gender Male, age 6 weeks
# setup conditions: in vivo, po, 0 mg/kg, 6 h, tissue Plasma, route gavage, dose level Control
readout kind: TP (g/dL)
Answers are plain numbers, in g/dL.

Solved cases (5 shown):
compound | uom | observed
C1CCC(C(CC2CCCCN2)C2CCCCC2)CC1 (stereo unspecified) | g/dL | 5.6
CC(CN1c2ccccc2Sc2ccccc21)N(C)C (stereo unspecified) | g/dL | 5.4
C#C[C@]1(O)CC[C@H]2[C@@H]3CCC4=Cc5oncc5C[C@]4(C)[C@H]3CC[C@@]21C | g/dL | 5.3
Cc1cccc(Nc2ccccc2C(=O)O)c1C | g/dL | 5.4
CN1C(C(=O)Nc2ccccn2)=C(O)c2sc(Cl)cc2S1(=O)=O | g/dL | 5.6

Reported TP, compound Clc1c(Cl)c(Cl)c(Cl)c(Cl)c1Cl : ____
5.6

###

# Organism: Rattus norvegicus
# assay notes: Open TG-GATES - Regimen: Single
# Format: toxicity, organism-based, Sprague-Dawley
# Design: regimen Single, gender Male, age 6 weeks
# setup conditions: in vivo, po, 0 mg/kg, 9 h, tissue Plasma, route gavage, dose level Control
Can you tell me TBIL for the items I'm about to list?
Write your answer as a measured quantity: the number, then the unit.

// solved cases for TBIL follow
compound | observed
CC(=O)Nc1nnc(S(N)(=O)=O)s1 [ACETAZOLAMIDE] | 0.024 mg/dL
Cc1cccc(Nc2ccccc2C(=O)O)c1C [MEFENAMIC ACID] | 0.1 mg/dL
C#C[C@]1(O)CC[C@H]2[C@@H]3CCC4=Cc5oncc5C[C@]4(C)[C@H]3CC[C@@]21C [DANAZOL] | 0.016 mg/dL

Provide each entry's TBIL from the list below.
1. COc1cc([C@@H]2c3cc4c(cc3[C@@H](O[C@@H]3O[C@@H]5CO[C@@H](C)O[C@H]5[C@H](O)[C@H]3O)[C@H]3COC(=O)[C@H]23)OCO4)cc(OC)c1O [ETOPOSIDE]
2. CN1C(C(=O)Nc2ccccn2)=C(O)c2sc(Cl)cc2S1(=O)=O [LORNOXICAM]
3. CC(CN1c2ccccc2Sc2ccccc21)N(C)C (stereo not given) [PROMETHAZINE]
4. CN(C)[C@@H]1C(O)=C(C(N)=O)C(=O)[C@@]2(O)C(O)=C3C(=O)c4c(O)cccc4[C@@](C)(O)[C@H]3C[C@@H]12 [TETRACYCLINE]
5. C1CCC(C(CC2CCCCN2)C2CCCCC2)CC1 (stereo not given) [PERHEXILINE]

0.4 mg/dL
0.1 mg/dL
0.016 mg/dL
0.3 mg/dL
0.012 mg/dL

Value sought for every listed compound: TBIL.
1. Clc1c(Cl)c(Cl)c(Cl)c(Cl)c1Cl [PERCHLOROBENZENE]
2. CCOC(=O)[C@H](CCc1ccccc1)N[C@@H](C)C(=O)N1CCC[C@H]1C(=O)O

1. 0.1 mg/dL
2. 0.4 mg/dL

###

# Species on record: Rattus norvegicus
# assay notes: Open TG-GATES - Regimen: Daily Repeat
# Assay type: toxicity, organism-based, Sprague-Dawley
# Design: regimen Daily Repeat, gender Male, age 6 weeks
# setup conditions: in vivo, po, 0 mg/kg, […], tissue Blood, route gavage, dose level Control, time 28 day
readout kind: Hb (g/dL)
Answers are plain numbers, in g/dL.

The examples below pair each entry with its known result.
compound | Hb / g/dL
CC(CN1c2ccccc2Sc2ccccc21)N(C)C (stereo not drawn) | 15.1
CCOC(=O)[C@H](CCc1ccccc1)N[C@@H](C)C(=O)N1CCC[C@H]1C(=O)O | 15.3
Clc1c(Cl)c(Cl)c(Cl)c(Cl)c1Cl | 15.2
C#C[C@]1(O)CC[C@H]2[C@@H]3CCC4=Cc5oncc5C[C@]4(C)[C@H]3CC[C@@]21C | 14.6
Cc1cccc(Nc2ccccc2C(=O)O)c1C | 15.3

The following compounds each have a reported value; give each one's Hb.
1. C1CCC(C(CC2CCCCN2)C2CCCCC2)CC1 (stereo not drawn)
2. CN(C)[C@@H]1C(O)=C(C(N)=O)C(=O)[C@@]2(O)C(O)=C3C(=O)c4c(O)cccc4[C@@](C)(O)[C@H]3C[C@@H]12
3. CN1C(C(=O)Nc2ccccn2)=C(O)c2sc(Cl)cc2S1(=O)=O

1: 13.5; 2: 14.8; 3: 15.8
